B1: mRNA-splicing (parent)
chain: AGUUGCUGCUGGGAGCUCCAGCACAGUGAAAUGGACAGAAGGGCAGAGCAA

Variants of: B1
Assay: exon inclusion enrichment index; higher = more inclusion; WT1 exon 5 minigene, HEK293
Please mark YES if the recorded exon inclusion enrichment index is equal to or greater than 0.4, and NO if it falls below.

[[record]]
variant_key = "G5U G8U C9U U27C G28A"
qualitative_label = "NO"

[[record]]
variant_key = "G5C C6U G8C C9U U10C A35U C36G"
qualitative_label = "NO"

[[record]]
variant_key = "C6A U7A C9A U10A A35C C36A"
qualitative_label = "NO"

[[record]]
variant_key = "A25G G26U"
qualitative_label = "NO"

[[record]]
variant_key = "G5C C6G U7C U10C C36U"
qualitative_label = "YES"

[[record]]
variant_key = "G5C C6U G8C C9U U10C G46A"
qualitative_label = "YES"

[[record]]
variant_key = "G5A C6U U7A G8U C9A A31C U32A"
qualitative_label = "NO"

[[record]]
variant_key = "G5C C6A U7C G8A C9A"
qualitative_label = "YES"

[[record]]
variant_key = "G5C C6A U7C G8A U10A G41A"
qualitative_label = "NO"

[[record]]
variant_key = "G5C C6A U7G U10C"
qualitative_label = "YES"

[[record]]
variant_key = "U4C G5U C6U U7A G8U C9A"
qualitative_label = "NO"

